- TESTED_SYSTEM: T1, I-Ab (mouse), P14434
- T1 chain 1: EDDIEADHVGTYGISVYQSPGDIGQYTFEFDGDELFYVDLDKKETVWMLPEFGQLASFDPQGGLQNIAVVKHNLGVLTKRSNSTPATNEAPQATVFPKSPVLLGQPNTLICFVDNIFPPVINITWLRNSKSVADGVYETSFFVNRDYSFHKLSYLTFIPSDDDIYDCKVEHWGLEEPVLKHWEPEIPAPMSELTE
- T1 chain 2: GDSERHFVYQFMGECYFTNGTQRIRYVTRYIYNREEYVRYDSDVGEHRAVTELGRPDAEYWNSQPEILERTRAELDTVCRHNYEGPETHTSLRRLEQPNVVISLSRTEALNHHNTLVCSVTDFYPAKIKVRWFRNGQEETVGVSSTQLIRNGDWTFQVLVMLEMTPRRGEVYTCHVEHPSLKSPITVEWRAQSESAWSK
- RUN_DESCRIPTION: biochemically tested I-Ab binding affinity (method not told)
QUANTITY_MEASURED: IC50
Remember to quote the unit after the number.

For record AWENTTIDLTSEKPA (modifications not checked) […] the listed IC50 is 10 µM

Where do these numbers come from? They come from patent US20220033460A1.
